Data credit: PubChem BioAssay (NCATS)

test.description: Quantitative High-Throughput drug screen in 47 multiple myeloma cell lines against the NCATS MIPE library collection: L363_DSMZ cell viability assay (AID 1918984); also: nearly all actives have a fitted effect of over 40% in size; also: potency is read from the fitted curve at half-maximal effect
experimental.conditions: L363 myeloma viability, CellTiter-Glo ATP luminescence, 48 h; series mostly up to 45.8 µM
Inconclusive results are not listed. Activity calls are given as the source filed them. Calls follow the shape of the dose curve; as a rule, active = well fitted cell-killing curve with a large enough effect; inconclusive = small, poorly fitted or top-dose-only effect, or effect the other way; inactive = no such curve, though single readings can be large or run the other way.
endpoint.label: Potency

1. CCCCCNC(=O)N1CCC(CN(Cc2ccc(Cl)cc2)Cc2ccc([N+](=O)[O-])s2)C1 (stereo not drawn): 20.9 µM (active)
2. CC=CCC=CCCC(=O)[C@H]1O[C@@H]1C(N)=O: 18.7 µM (active)
3. COCCOC(=O)C1=C(C)NC2=C(C(=O)CC(c3ccccc3OC)C2)C1c1cccc(O)c1 (stereo not drawn): 0.001 µM (active)
4. C[N+]1(C)[C@@H]2CC(OC(=O)[C@H](CO)c3ccccc3)C[C@H]1[C@H]1O[C@@H]12 (stereo partly drawn): inactive
5. CC1CCC(C(=O)N(c2cc(C#CC(C)(C)C)sc2C(=O)O)C2CCC(O)CC2)CC1 (stereo not drawn): inactive
6. N#C[C@H]1C[C@H]2C[C@@H]2N1C(=O)[C@@H](N)C12CC3CC(CC(O)(C3)C1)C2: inactive

Request: Look at this molecule and give its reported Potency. C=C1C(=O)OC(CCCCCCCC)C1C(=O)O (stereo not drawn)
Response: inactive

Request: Please do the same for `O=C1NC(=O)C(=Cc2ccc3nccnc3c2)S1` as well.
Response: 0.115 µM (active)

----------
test.description: Cell Viability - LYMP1-002 - Assay at 40 hr (AID 994); also: nearly all actives have a fitted effect of over 60% in size
experimental.conditions: LYMP1-002 lymphoblastoid cell viability; series mostly up to 92.2 µM
Results filed as inconclusive are left out. Calls of active or inactive are those of the source. The call rests on the fitted dose curve; in most records, active means well fitted cell-killing curve with a large enough effect; inconclusive means small, poorly fitted or top-dose-only effect; inactive means flat fitted curve, though single readings scatter.
# valid calls are yes = active, no = inactive; nothing else

Request: What outcome does the record of this test show for `CC(=O)c1ccc(S(=O)(=O)NC(=O)NC2CCCCC2)cc1` ?
Response: no

Request: Please do the same for `O=C(O)Cc1cccc2ccccc12` as well.
Response: no

----------
test.description: Quantitative High-Throughput drug screen in 47 multiple myeloma cell lines against the NCATS MIPE library collection: Karpas417_ECACC cell viability assay (AID 1918961)
experimental.conditions: Karpas417 myeloma viability, CellTiter-Glo ATP luminescence, 48 h
Inconclusive results are not listed. The source made the active and inactive calls. Calls come from the whole dose curve; as a rule, active = well fitted cell-killing curve with a large enough effect; inconclusive = small, poorly fitted or top-dose-only effect, or effect the other way; inactive = no such curve, though single readings can be large or run the other way.
# valid calls are active, inactive; nothing else

Would you please look over these solved cases?
1) O=C(O)C=Cc1ccc(O)c(O)c1: active
2) NS(=O)(=O)c1cccc2c1C(=O)c1cccc(O)c1C2=O: active
3) COc1ccc(-c2coc3cc(O)ccc3c2=O)cc1: inactive
4) NC(=O)c1ccc2nc(-c3ccc(Oc4ccc(Cl)cc4)cc3)[nH]c2c1: active
5) COc1cc(O)c2c(c1)C(=O)c1cc(C)cc(O)c1C2=O: inactive

Request: What outcome does the record of this test show for CC(C)C(C)C=CC(C)C1CCC2C3=CC=C4CC(O)CCC4(C)C3CCC21C (centres undefined) ?
Response: inactive

Request: Please do the same for `COc1ncc(-c2ccc3nccc(-c4ccnnc4)c3c2)cc1NS(=O)(=O)c1ccc(F)cc1F` as well.
Response: inactive

Request: Please do the same for `CN(C)Cc1ccc(-c2nc3cccc4c3n2CCNC4=O)cc1` as well.
Response: active

Request: Please do the same for `Nc1ncnc2c1ncn2[C@@H]1O[C@@H](CO)[C@H](O)[C@H]1O` as well.
Response: inactive
